Give measured cell viability for each item. Keep answers brief.
Test system: Caco-2
methodDescription: cell viability relative to DMSO; higher = less toxic
cond: 72 h; 1000 nM
Numbers only, in %.

Some solved cases for reference:
| compound | targetOrTestSystem | cell viability (%) |
| --- | --- | --- |
| C=C1CC/C=C(\C)CC[C@@H]2[C@@H]1CC2(C)C | Caco-2 | 121 |
| CN1CC2c3ccccc3Oc3ccc(Cl)cc3C2C1 (stereo not drawn) | Caco-2 | 108 |
| CC(C)N1CCN(c2ccc(C(=O)c3c(-c4ccc(O)cc4)sc4cc(O)ccc34)cc2)CC1 | Caco-2 | 98.7 |
| C=C1C(=O)[C@]23[C@H](O)[C@H]1CC[C@H]2[C@@]12CO[C@]3(O)[C@@H](O)[C@@H]1C(C)(C)CC[C@@H]2O | Caco-2 | 93.3 |
| CN1C(=O)COc2c(C(=O)NC3CN4CCC3CC4)cc(Cl)cc21 (stereo not drawn) | Caco-2 | 98.7 |

Required: cell viability, one value per compound below.
1. Cc1cc(-c2ncc(CC(=O)Nc3ccc(-c4cnccn4)cn3)cc2C)ccn1
2. CCCCCCCCCCCCCCCC[N+](C)(C)CCN(Cc1ccc(OC)cc1)c1ncccn1
3. COc1cc(Cc2cnc(N)nc2N)cc(OC)c1OC

-- reply
91.2
80.3
103

# credit: the supplement of paper PMC13380429
